# system_under_test: hPPARγ (Homo sapiens, UniProt P37231)
# Construct: corresponding to the DEF domains (structural elements of the promoter of the PPARs: D=hinge, EF=ligand fixation domain and AF2 fixation site); expressed in transfected cells; host or cells: COS-7 (monkey kidney fibroblasts)
# Sequence (P37231 238-503 limits assumed): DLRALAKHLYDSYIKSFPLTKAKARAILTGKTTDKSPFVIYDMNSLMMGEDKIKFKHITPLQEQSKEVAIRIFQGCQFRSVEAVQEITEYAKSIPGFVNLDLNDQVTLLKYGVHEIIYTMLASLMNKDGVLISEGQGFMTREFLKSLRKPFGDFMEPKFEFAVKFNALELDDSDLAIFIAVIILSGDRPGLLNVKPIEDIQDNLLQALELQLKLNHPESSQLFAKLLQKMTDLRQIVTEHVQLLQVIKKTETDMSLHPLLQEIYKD
# run_description: Gal4-hPPARγ chimera transactivation (luciferase) in COS-7 cells
# Type: cell-based
# condition: relative to maximum activation obtained with rosiglitazone, 24 hours, read-out: PPARγ TOP % (maximum activation)
Records here are stratified by Emax; strata: lower range (below 50%), middle range (50% to below 80%), upper range (80% or more)

These recorded examples may help you get a feel for the data.
> print(dat)
                                   compound         class
1  COc1nc(-c2ccccc2)ccc1COc1ccc(OC(C)C(=O)O)cc1 (centres unmarked)   lower range
2  CC(C)Oc1nc(-c2ccccc2)ccc1CNc1ccc(CCC(=O)O)cc1   lower range
3  COc1nc(-c2ccccc2)ccc1CSc1ccc(CCC(=O)O)cc1   upper range
4  COc1ncc(-c2ccc(C(F)(F)F)cc2)cc1CNc1ccc(CCC(=O)O)cc1  middle range
5  O=C(O)COc1ccc(OCc2ccc(-c3ccccc3)nc2OC2CCCCC2)cc1   lower range

Each compound maps to one class by Emax. Which class for COc1nc(-c2ccccc2)ccc1CNc1cccc(OCC(=O)O)c1 ?
middle range

Each compound maps to one class by Emax. Which class for COc1cc(NCc2ccc(-c3ccccc3)nc2OC)ccc1CCC(=O)O ?
upper range

Each compound maps to one class by Emax. Which class for COc1nc(-c2ccc(C(F)(F)F)cc2)ccc1CNc1ccc(SC(C)(C)C(=O)O)cc1 ?
upper range

###

# system_under_test: hPPARα (Homo sapiens, UniProt Q07869)
# Construct: corresponding to the DEF domains (structural elements of the promoter of the PPARs: D=hinge, EF=ligand fixation domain and AF2 fixation site); expressed in transfected cells; host or cells: COS-7 (monkey kidney fibroblasts)
# Sequence (Q07869 239-466 limits assumed): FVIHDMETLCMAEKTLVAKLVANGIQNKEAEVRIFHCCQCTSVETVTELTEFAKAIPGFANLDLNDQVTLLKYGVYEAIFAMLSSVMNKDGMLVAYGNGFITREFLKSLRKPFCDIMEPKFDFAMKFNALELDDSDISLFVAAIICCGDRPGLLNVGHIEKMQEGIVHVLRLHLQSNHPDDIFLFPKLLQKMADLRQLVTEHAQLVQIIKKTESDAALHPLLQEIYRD
# run_description: Gal4-hPPARα chimera transactivation (luciferase) in COS-7 cells
# Assay type: cell-based
# condition: relative to maximum activation obtained with fenofibric acid; COS-7 cells, Gal4-hPPARα, 24 hours; read-out: PPARα TOP % (maximum activation)
Listed here are compounds together with their documented Emax.
Return type: number; implicit unit %.

See these solved cases before continuing.
> print(dat)
                                   compound  metric.name  unit.annotation  reported.value
1  COc1nc(-c2ccccc2)ccc1COc1ccc(OC(C)C(=O)O)cc1 (stereo not shown) [Cpd 3]         Emax                %            68.7
2  CC#CC(CC(=O)O)c1ccc(OCc2ccc(-c3ccccc3)nc2OC)cc1 (stereo not shown) [Cpd 53]         Emax                %            48.6
3  CCOc1nc(-c2ccccc2)ccc1CNc1ccc(CCC(=O)O)cc1 [Cpd 51]         Emax                %            50.5

From here, focus on the item given below.
Using the record for COc1nc(-c2ccccc2)ccc1CNc1ccc(CCC(=O)O)cc1 [Cpd 19] , state its measured Emax.
68
